pEC50 for assorted molecules
TARGET: h-TGR5 (Homo sapiens)
Construct: expressed in transfected cells
Sequence (Q8TDU6 whole entry): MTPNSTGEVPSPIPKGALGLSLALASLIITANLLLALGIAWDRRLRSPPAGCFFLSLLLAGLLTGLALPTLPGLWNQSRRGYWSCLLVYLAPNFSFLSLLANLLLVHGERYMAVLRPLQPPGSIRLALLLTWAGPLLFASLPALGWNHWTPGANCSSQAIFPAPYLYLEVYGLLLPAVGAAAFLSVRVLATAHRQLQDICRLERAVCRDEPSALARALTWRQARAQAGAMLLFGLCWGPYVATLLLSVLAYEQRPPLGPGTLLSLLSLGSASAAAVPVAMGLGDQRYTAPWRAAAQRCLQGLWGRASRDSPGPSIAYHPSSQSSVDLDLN
EXPERIMENTAL DETAILS: TGR5 cAMP Assay using Cisbio cAMP Dynamic2 htrf kit (hTGR5CRE-luc HEK 293 cells)
Type: cell-based
REPORTED CONDITIONS: h-TGR5 cAMP EC50, Table 1; read-out: cAMP (EC50)
pEC50: −log10 of the molar value.

Use these answered entries as a reference point.
{"SMILES NOTATION": "COc1cc(C(C)(C)c2cnc(NCc3ccc(Cl)cc3F)n2-c2ccc(F)cc2)ccc1Cl", "VALUE": "5.00 to 6.00"}
{"SMILES NOTATION": "CC(C)NC(=O)NS(=O)(=O)c1ccc(CSc2ncc(C(C)(C)c3ccc(F)c(C(F)F)c3)n2-c2ccc(F)cc2)c(Cl)c1", "VALUE": "6.00 to 7.00"}
{"SMILES NOTATION": "COc1cc(C(C)(C)c2cnc(S(=O)(=O)CC3CCN(S(C)(=O)=O)CC3)n2-c2ccc(F)cc2)ccc1Cl", "VALUE": "6.00 to 7.00"}
{"SMILES NOTATION": "COc1cc(C(C)(C)c2cnc(SCc3c(F)cc(OCc4nnn[nH]4)cc3F)n2-c2ccc(F)cc2)ccc1Cl", "VALUE": "> 7.00"}
{"SMILES NOTATION": "COc1ccc(C(C)(C)c2cnc(SCc3cc(F)cc(Cl)c3)n2-c2ccc(F)cc2)cc1OC", "VALUE": "> 7.00"}

[in] Give its pEC50 value. Item: CC(=O)N1CCC(CSc2ncc(C(C)(C)c3ccc(Cl)c(Cl)c3)n2-c2ccc(F)cc2)CC1
[out] 6.00 to 7.00

[in] Consider the molecule COc1ccc(C(C)(C)c2cnc(CCc3c(F)cccc3Cl)n2-c2ccc(F)cc2)cc1OC and give its measured pEC50.
[out] > 7.00

[in] // query pEC50 value for entry CCOC(=O)NS(=O)(=O)c1ccc(CSc2ncc(C(C)(C)c3ccc(S(N)(=O)=O)c(Cl)c3)n2-c2ccc(F)c(OC)c2)c(Cl)c1
[out] > 7.00

[in] // lookup pEC50 for CC(C)(c1ccc(S(C)(=O)=O)cc1)c1cnc(SCc2ccc(Cl)c(-c3nnn[nH]3)c2)n1-c1ccc(F)c(F)c1
[out] 5.00 to 6.00

[in] # get_value(readout='pEC50', item= COc1cc(C(C)(C)c2cnc(SCc3ccc(S(=O)(=O)NC(=O)NN4CCOCC4)cc3Cl)n2-c2ccc(F)cc2)ccc1Cl )
[out] > 7.00

[in] What does the record list as pEC50 for COc1cc(-n2c(C(C)(C)c3ccc(S(N)(=O)=O)c(Cl)c3)cnc2SCc2ccc(S(N)(=O)=O)cc2Cl)ccc1F ?
[out] > 7.00

[in] Quick check: pEC50 of COc1cc(C(C)(C)c2cnc(SCc3ccc(C#CCNC(=N)N)c(C(=O)O)c3)n2-c2ccc(F)cc2)ccc1Cl ?
[out] > 7.00

[in] Could you share which pEC50 value was measured for CC(C)(c1ccc(F)cc1)c1cnc(SCc2ccc(S(=O)(=O)NC(=O)NN3CCCC3)cc2Cl)n1-c1ccc(F)c(Cl)c1 ?
[out] 5.00 to 6.00

[in] Find the recorded pEC50 belonging to COc1cc(C(C)(C)c2cnc(SCc3c(F)cc(S(=O)(=O)NCCCNC(=N)N)cc3F)n2-c2ccc(F)cc2)ccc1Cl and report it.
[out] > 7.00

[in] Which pEC50 is listed for COc1cc(C(C)(C)c2cnc(SCc3c(F)cc(C(=O)N[C@H](CCCNC(=N)N)C(=O)O)cc3Cl)n2-c2ccc(F)cc2)ccc1Cl ?
[out] > 7.00

[in] For the molecule shown here, CC(C)(c1ccc(Cl)c(Cl)c1)c1cnc(SCc2ccc(OCC(=O)O)c(S(N)(=O)=O)c2)n1-c1ccc(F)cc1 , give the reported pEC50.
[out] 6.00 to 7.00
